# credit: patent US11142515B2

- measured.on: p38 MAPKα isoform (MAPK14) (Homo sapiens, UniProt Q16539)
- Construct: purchased Life Technologies
- Sequence (Q16539 whole entry, canonical isoform): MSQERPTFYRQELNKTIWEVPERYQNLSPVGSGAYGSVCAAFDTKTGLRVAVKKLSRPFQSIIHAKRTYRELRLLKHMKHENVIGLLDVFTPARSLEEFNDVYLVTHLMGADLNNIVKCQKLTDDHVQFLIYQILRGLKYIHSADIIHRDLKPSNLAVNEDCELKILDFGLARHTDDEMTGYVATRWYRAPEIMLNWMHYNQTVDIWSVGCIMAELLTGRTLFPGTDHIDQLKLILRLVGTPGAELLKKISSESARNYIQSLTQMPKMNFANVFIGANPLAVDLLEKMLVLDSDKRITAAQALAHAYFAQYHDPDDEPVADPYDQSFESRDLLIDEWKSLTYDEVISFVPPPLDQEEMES
- measurement.description: p38 MAPKα enzyme inhibition (Z-LYTE FRET)
- Assay type: biochemical
- protocol.conditions: Table 2B, unit inferred; read-out: p38 MAPKα (Enzyme Profile)
pIC50: −log10 of the molar value.
Short version: pIC50 at least 8 is MET, less is NOT MET.

smiles.string: Cc1ccc(-n2nc(C(C)(C)C)cc2NC(=O)Nc2ccc(OCc3ccnc(Nc4cnc(C(=O)N5CCC(C)CC5)cn4)c3)c3ccccc23)cc1
group.label: NOT MET
//
smiles.string: CCc1cncc(Nc2cc(COc3ccc(NC(=O)Nc4cc(C(C)(C)C)nn4-c4ccc(C)c(C)c4)c4ccccc34)ccn2)n1
group.label: NOT MET

IN: I'd appreciate it if you could say whether Cc1ccc(-n2nc(C(C)(C)C)cc2NC(=O)Nc2ccc(OCc3ccnc(Nc4cncc(N5CCOCC5)n4)c3)c3ccccc23)cc1 has pIC50 at least equal to 8.
OUT: MET

* * *

Consider molecules characterized by their IC50 with Syk (Homo sapiens).

molecule: CC(=O)NCc1cnc(Nc2cc(COc3ccc(NC(=O)Nc4cc(C(C)(C)C)nn4-c4ccc(C)cc4)c4ccccc34)ccn2)cn1 [Example 6]
IC50: 7.52 µM

molecule: CC(C)(C)c1cc(NC(=O)Nc2ccc(OCc3ccnc(Nc4cnccn4)c3)c3ccccc23)n(-c2cccc(F)c2)n1 [Example 49]
IC50: 9.25 µM

molecule: Cc1ccc(-n2nc(C(C)(C)C)cc2NC(=O)Nc2ccc(OCc3ccnc(Nc4cnc(C)cn4)c3)c3ccccc23)cc1 [Example 19]
IC50: > 16.3 µM

Report IC50 for every entry below.
1. CNC(=O)c1cnc(Nc2cc(COc3ccc(NC(=O)Nc4cc(C(C)(C)C)nn4-c4ccc(C)cc4)c4ccccc34)ccn2)cn1 [Example 7]
2. COCCNC(=O)c1cnc(Nc2cc(COc3ccc(NC(=O)Nc4cc(C(C)(C)C)nn4-c4csc(C)c4)c4ccccc34)ccn2)cn1 [Example 44]

OUT:
1: > 15.2 µM; 2: > 14.2 µM

For the 6 molecules below, give their IC50 values.
1. Cc1ccc(-n2nc(C(C)(C)C)cc2NC(=O)Nc2ccc(OCc3ccnc(Nc4cnccn4)c3)c3ccccc23)cc1 [Example 1]
2. Cc1ccc(-n2nc(C(C)(C)C)cc2NC(=O)Nc2ccc(OCc3ccnc(Nc4cncc(C5CC5)n4)c3)c3ccccc23)cc1 [Example 15]
3. Cc1ccc(-n2nc(C(C)(C)C)cc2NC(=O)Nc2ccc(OCc3ccnc(Nc4cnc(C(=O)N5CCOCC5)cn4)c3)c3ccccc23)cc1 [Example 35]
4. Cc1ccc(-n2nc(C(C)(C)C)cc2NC(=O)Nc2ccc(OCc3ccnc(Nc4cnc(C(=O)N5CCCC5)cn4)c3)c3ccccc23)cc1 [Example 36]
5. Cc1ccc(-n2nc(C(C)(C)C)cc2NC(=O)Nc2ccc(OCc3ccnc(Nc4cnc(CC(N)=O)cn4)c3)c3ccccc23)cc1 [Example 30]
6. Cc1ccc(-n2nc(C(C)(C)C)cc2NC(=O)Nc2ccc(OCc3ccnc(Nc4cncc(N(C)C)n4)c3)c3ccccc23)cc1 [Example 14]

OUT:
["> 16.7 µM", "> 15.7 µM", "> 14 µM", "> 14.4 µM", "> 15.2 µM", "> 15.6 µM"]

* * *

- measured.on: Syk (Homo sapiens, UniProt P43405)
- Construct: purchased Life Technologies
- measurement.description: Syk enzyme inhibition (Z-LYTE FRET)
- Type: biochemical
- protocol.conditions: Table 2A
property.name: IC50

Would you please look over these solved cases?
smiles.string: COc1ccc(-n2nc(C(C)(C)C)cc2NC(=O)Nc2ccc(OCc3ccnc(Nc4cnccn4)c3)c3ccccc23)cc1
measured.on: Syk (Homo sapiens, UniProt P43405)
observed.value: > 16.3 µM
//
smiles.string: CNC(=O)Cc1cncc(Nc2cc(COc3ccc(NC(=O)Nc4cc(C(C)(C)C)nn4-c4ccc(C)cc4)c4ccccc34)ccn2)n1
measured.on: Syk (Homo sapiens, UniProt P43405)
observed.value: > 14.9 µM
//
smiles.string: COc1ccc(-n2nc(C(C)(C)C)cc2NC(=O)Nc2ccc(OCc3ccnc(Nc4cnc(CO)cn4)c3)c3ccccc23)cc1
measured.on: Syk (Homo sapiens, UniProt P43405)
observed.value: 2.15 µM
//
smiles.string: Cc1ccc(-n2nc(C(C)(C)C)cc2NC(=O)Nc2ccc(OCc3ccnc(Nc4cncc(C)n4)c3)c3ccccc23)cc1
measured.on: Syk (Homo sapiens, UniProt P43405)
observed.value: > 16.3 µM
//
smiles.string: Cc1cc(-n2nc(C(C)(C)C)cc2NC(=O)Nc2ccc(OCc3ccnc(Nc4cncc(C5CC5)n4)c3)c3ccccc23)cs1
measured.on: Syk (Homo sapiens, UniProt P43405)
observed.value: 9.16 µM

Consider the additional molecule presented here.
IN: Given the entry CNC(=O)Cc1cnc(Nc2cc(COc3ccc(NC(=O)Nc4cc(C(C)(C)C)nn4-c4ccc(C)cc4)c4ccccc34)ccn2)cn1 , what IC50 was observed with Syk (Homo sapiens, UniProt P43405)?
OUT: > 14.9 µM

* * *

- measured.on: p38MAPKγ (MAPK12) (Homo sapiens, UniProt P53778)
- Construct: purchased Life Technologies
- Sequence (P53778 whole entry): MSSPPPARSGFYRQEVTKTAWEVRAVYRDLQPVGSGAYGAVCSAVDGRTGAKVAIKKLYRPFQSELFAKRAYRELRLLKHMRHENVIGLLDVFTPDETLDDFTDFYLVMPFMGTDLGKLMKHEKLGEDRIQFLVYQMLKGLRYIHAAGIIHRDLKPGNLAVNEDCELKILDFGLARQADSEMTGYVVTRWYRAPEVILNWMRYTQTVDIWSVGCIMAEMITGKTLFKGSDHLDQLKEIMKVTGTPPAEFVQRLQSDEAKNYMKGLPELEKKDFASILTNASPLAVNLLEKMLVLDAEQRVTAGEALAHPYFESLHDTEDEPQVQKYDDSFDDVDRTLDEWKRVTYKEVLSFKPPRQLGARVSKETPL
- measurement.description: p38 MAPKγ enzyme inhibition (Z-LYTE FRET)
- Type: biochemical
- protocol.conditions: Table 2B, unit inferred; read-out: p38 MAPKγ (Enzyme Profile)
Please note: IC50 exactly at 100 nM is rule not met. Only values below 100 nM get rule met.

Look over these answered cases.
compound: COCc1cccc(-n2nc(C(C)(C)C)cc2NC(=O)Nc2ccc(OCc3ccnc(Nc4cnc(CN5CCOCC5)cn4)c3)c3ccccc23)c1 [Example 262]
group.label: rule not met

compound: CCc1ccc(-n2nc(C(C)(C)C)cc2NC(=O)Nc2ccc(OCc3ccnc(Nc4cnc(CO)cn4)c3)c3ccccc23)cc1 [Example 164]
group.label: rule not met

compound: CCc1nc(Nc2cc(COc3ccc(NC(=O)Nc4cc(C(C)(C)C)nn4-c4ccc(C)cc4)c4ccccc34)ccn2)cnc1C [Example 143]
group.label: rule not met

compound: Cc1ccc(-n2nc(C(C)(C)C)cc2NC(=O)Nc2ccc(OCc3ccnc(Nc4cnc(C(=O)NCCN5CCC(F)(F)CC5)cn4)c3)c3ccccc23)cc1 [Example 94]
group.label: rule not met

compound: Cc1ccc(-n2nc(C(C)(C)C)cc2NC(=O)Nc2ccc(OCc3ccnc(Nc4cnc(C(=O)NC5CCN(C)CC5)cn4)c3)c3ccccc23)cc1 [Example 80]
group.label: rule met

Now examine the next entry.
IN: Bench note: check whether COc1ccc(-n2nc(C(C)(C)C)cc2NC(=O)Nc2ccc(OCc3ccnc(Nc4cnccn4)c3)c3ccccc23)cc1F [Example 148] shows IC50 below 100 nM
OUT: rule not met

* * *

- measured.on: p38 MAPKα isoform (MAPK14) (Homo sapiens)
- Construct: purchased Life Technologies
- measurement.description: p38 MAPKα enzyme inhibition (Z-LYTE FRET)
- Format: biochemical
- protocol.conditions: Table 2A; read-out: IC50 Values for Enzyme Inhibition p38 MAPKα
property.name: IC50 (nM)
Answers are plain numbers, in nM.

Solved cases below.
compound: COc1ccc(-n2nc(C(C)(C)C)cc2NC(=O)Nc2ccc(OCc3ccnc(Nc4cnccn4)c3)c3ccccc23)cc1C [Example 39]
measured.on: p38 MAPKα isoform (MAPK14) (Homo sapiens)
IC50 [nM]: 18

compound: Cc1ccc(-n2nc(C(C)(C)C)cc2NC(=O)Nc2ccc(OCc3ccnc(Nc4cnc(C)cn4)c3)c3ccccc23)cc1 [Example 19]
measured.on: p38 MAPKα isoform (MAPK14) (Homo sapiens)
IC50 [nM]: 13

compound: COCCNC(=O)c1cnc(Nc2cc(COc3ccc(NC(=O)Nc4cc(C(C)(C)C)nn4-c4ccc(C)cc4)c4ccccc34)ccn2)cn1 [Example 3]
measured.on: p38 MAPKα isoform (MAPK14) (Homo sapiens)
IC50 [nM]: 9

compound: Cc1ccc(-n2nc(C(C)(C)C)cc2NC(=O)Nc2ccc(OCc3ccnc(Nc4cnccn4)c3)c3ccccc23)s1 [Example 13]
measured.on: p38 MAPKα isoform (MAPK14) (Homo sapiens)
IC50 [nM]: 9

compound: COCCNC(=O)c1cnc(Nc2cc(COc3ccc(NC(=O)Nc4cc(C(C)(C)C)nn4-c4ccc(C)s4)c4ccccc34)ccn2)cn1 [Example 43]
measured.on: p38 MAPKα isoform (MAPK14) (Homo sapiens)
IC50 [nM]: 12

Dear colleague, could you send me IC50 for each of the items below? Thanks.
1. CC(=O)NCc1cnc(Nc2cc(COc3ccc(NC(=O)Nc4cc(C(C)(C)C)nn4-c4ccc(C)cc4)c4ccccc34)ccn2)cn1 [Example 6]
2. CC(C)(C)c1cc(NC(=O)Nc2ccc(OCc3ccnc(Nc4cnccn4)c3)c3ccccc23)n(-c2cccc(Cl)c2)n1 [Example 50]
3. Cc1ccc(-n2nc(C(C)(C)C)cc2NC(=O)Nc2ccc(OCc3ccnc(Nc4cncc(C5CC5)n4)c3)c3ccccc23)s1 [Example 24]
4. CCc1cnc(Nc2cc(COc3ccc(NC(=O)Nc4cc(C(C)(C)C)nn4-c4ccc(C)cc4)c4ccccc34)ccn2)cn1 [Example 37]
5. Cc1ccc(-n2nc(C(C)(C)C)cc2NC(=O)Nc2ccc(OCc3ccnc(Nc4cnccn4)c3)c3ccccc23)cc1C [Example 51]
6. CNC(=O)c1cnc(Nc2cc(COc3ccc(NC(=O)Nc4cc(C(C)(C)C)nn4-c4ccc(C)cc4)c4ccccc34)ccn2)cn1 [Example 7]
7. Cc1ccc(-n2nc(C(C)(C)C)cc2NC(=O)Nc2ccc(OCc3ccnc(Nc4cncc(N(C)C)n4)c3)c3ccccc23)cc1 [Example 14]

OUT:
1: 3; 2: 22; 3: 38; 4: 24; 5: 14; 6: 15; 7: 12

Provide IC50 for all items below, preserving their order.
1. Cc1ccc(-n2nc(C(C)(C)C)cc2NC(=O)Nc2ccc(OCc3ccnc(Nc4cnccn4)c3)c3ccccc23)cc1C(F)(F)F [Example 52]
2. COCCNC(=O)c1cnc(Nc2cc(COc3ccc(NC(=O)Nc4cc(C(C)(C)C)nn4-c4csc(C)c4)c4ccccc34)ccn2)cn1 [Example 44]
3. CNC(=O)Cc1cncc(Nc2cc(COc3ccc(NC(=O)Nc4cc(C(C)(C)C)nn4-c4ccc(C)cc4)c4ccccc34)ccn2)n1 [Example 28]
4. CC(C)(C)c1cc(NC(=O)Nc2ccc(OCc3ccnc(Nc4cncc(C5CC5)n4)c3)c3ccccc23)n(-c2ccc(CO)cc2)n1 [Example 25]
5. COc1ccc(-n2nc(C(C)(C)C)cc2NC(=O)Nc2ccc(OCc3ccnc(Nc4cnccn4)c3)c3ccccc23)cn1 [Example 12]
6. Cc1ccc(-n2nc(C(C)(C)C)cc2NC(=O)Nc2ccc(OCc3ccnc(Nc4cnccn4)c3)c3ccccc23)cc1 [Example 1]

OUT:
[116, 11, 5, 7, 14, 25]

// batch mode: one IC50 value per listed entry
1. CC(C)c1ccc(-n2nc(C(C)(C)C)cc2NC(=O)Nc2ccc(OCc3ccnc(Nc4cnccn4)c3)c3ccccc23)cc1 [Example 41]
2. COc1ccc(-n2nc(C(C)(C)C)cc2NC(=O)Nc2ccc(OCc3ccnc(Nc4cnc(CO)cn4)c3)c3ccccc23)cc1 [Example 23]

OUT:
[189, 4]

For each of the compounds below, state IC50.
1. Cc1ccc(-n2nc(C(C)(C)C)cc2NC(=O)Nc2ccc(OCc3ccnc(Nc4cncc(C#N)n4)c3)c3ccccc23)cc1 [Example 11]
2. Cc1ccc(-n2nc(C(C)(C)C)cc2NC(=O)Nc2ccc(OCc3ccnc(Nc4cnc(CC(N)=O)cn4)c3)c3ccccc23)cc1 [Example 30]

OUT:
[52, 2]
